B1: TRIM15 (parent)
chain: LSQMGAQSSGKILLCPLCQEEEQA

# Variants of: B1
# protocol_notes: protein stability index of a GFP-peptide fusion (GPS, HEK-293T) (PSI 1-6); higher = more stable;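 also: lentivirally expressed fusions sorted by FACS into six bins by GFP to DsRed ratio, PSI derived from sequencing read proportions per bin multiplied by bin number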
# experimental_conditions: c terminus: a fixed tail appended
Threshold check on protein stability index: at or above 4 gives 1.0, strictly below gives 0.0.

L13A | 1.0
Q19I | 0.0
Q7C | 0.0
Q19R | 0.0
A24P | 0.0
Q3P | 1.0
G10Q | 0.0
Q23T | 0.0
L17V | 0.0
L13K | 1.0

**Q:** Hi team, for L1S , is the recorded protein stability index at or above 4?
**A:** 0.0

**Q:** Does the variant E21N have recorded protein stability index that is 4 or more?
**A:** 0.0

**Q:** Given S9E , state whether its protein stability index is at least 4.
**A:** 0.0

**Q:** Does the reported protein stability index for L1M fall at or above the 4 mark?
**A:** 0.0

**Q:** Reported protein stability index reaches at least 4 for S2A ?
**A:** 0.0

**Q:** Decide: protein stability index of Q19N >= 4?
**A:** 0.0

**Q:** Please check the record I12E and state if its protein stability index is at or above 4.
**A:** 0.0

**Q:** Hello, I need to know if G10I has measured protein stability index not below 4. Thanks!
**A:** 0.0

**Q:** Does M4G have a reported protein stability index of at least 4?
**A:** 0.0

**Q:** Please indicate if the recorded protein stability index for L17N meets or exceeds 4.
**A:** 1.0

Taken from the supplement of paper PMC10567573.
